AC50 listing for selected compounds.
MEASURED ON: UniProt:P07900
Type: functional, organism-based
Calls of active or inactive are those of the source.

{"columns": ["COMPOUND", "MEASURED ON", "AC50"],
 "data": [
  ["O=C(OCC(=O)C12CC3CC(CC(C3)C1)C2)c1ccc(O)cc1O", "UniProt:P07900", "24.5 µM (active)"],
  ["O=C(O)c1cn(-c2ccc(N3CCCC3)c(F)c2)c2c(F)c(F)c(F)cc2c1=O", "UniProt:P07900", "4.37 µM (active)"],
  ["CCCC(=O)NC(c1cccs1)c1cc(Cl)c2cccnc2c1O (configuration not stated)", "UniProt:P07900", "1.47 µM (active)"],
  ["O=C(/C=C/c1ccccc1)CCN1CCOCC1", "UniProt:P07900", "2.94 µM (active)"],
  ["COc1ccc(OC)c(NC(=O)Nc2ccc(O)c3ccccc23)c1", "UniProt:P07900", "0.434 µM (active)"],
  ["O=C1/C(=C/c2ccncc2)CCC/C1=C\\c1ccncc1", "UniProt:P07900", "8.7 µM (active)"],
  ["Cc1ccc(C(=O)OCn2ncc(Cl)c(Cl)c2=O)cc1", "UniProt:P07900", "4.28 µM (active)"]
]}

###

MEASURED ON: 72 kDa type IV collagenase (Homo sapiens)
Sequence (P08253 whole entry): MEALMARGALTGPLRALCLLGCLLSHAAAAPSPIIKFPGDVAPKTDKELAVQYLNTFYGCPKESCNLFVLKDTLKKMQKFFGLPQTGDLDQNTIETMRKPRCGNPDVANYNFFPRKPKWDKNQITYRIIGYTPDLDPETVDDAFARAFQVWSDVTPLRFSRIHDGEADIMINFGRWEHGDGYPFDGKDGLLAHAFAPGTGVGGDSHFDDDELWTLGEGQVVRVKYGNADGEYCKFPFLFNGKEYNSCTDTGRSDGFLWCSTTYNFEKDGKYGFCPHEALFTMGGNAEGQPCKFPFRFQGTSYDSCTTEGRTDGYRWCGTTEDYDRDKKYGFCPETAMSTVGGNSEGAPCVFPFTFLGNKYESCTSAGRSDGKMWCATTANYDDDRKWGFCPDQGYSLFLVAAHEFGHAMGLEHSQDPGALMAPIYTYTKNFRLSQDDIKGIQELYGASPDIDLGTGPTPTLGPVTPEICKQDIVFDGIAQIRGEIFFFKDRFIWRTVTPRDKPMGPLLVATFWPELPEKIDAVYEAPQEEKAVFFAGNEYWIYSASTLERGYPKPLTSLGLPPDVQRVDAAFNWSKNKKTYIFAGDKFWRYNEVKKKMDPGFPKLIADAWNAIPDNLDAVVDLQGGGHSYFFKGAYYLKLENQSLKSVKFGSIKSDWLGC
ASSAY: Dose Response validation of uHTS RPN11 inhibitor hits using a MMP-2 Fluorescence assay.
Format: functional
The source made the active and inactive calls.
IC50 listing for selected compounds.
VALUE KIND: IC50

{"columns": ["COMPOUND", "RESULT"],
 "data": [
  ["COC(=O)c1ccc(COc2ccc(/C=C(\\C#N)c3nc4ccccc4[nH]3)cc2OC)o1", "> 100 µM (inactive)"],
  ["O=C(CC1OC(=O)c2ccccc21)Nc1cc(Cl)ccc1N1CCCC1 (stereo not given)", "> 100 µM (inactive)"],
  ["C#CCn1/c(=N/C(=O)c2cccs2)sc2cccc(OC)c21", "> 100 µM (inactive)"],
  ["Cc1sc2nc(CSCC(=O)Nc3ccccc3C#N)[nH]c(=O)c2c1C", "> 100 µM (inactive)"],
  ["Cc1cccc2sc(NC(=O)C3CCCN(S(=O)(=O)c4cccc5nonc45)C3)nc12 (stereo not given)", "> 100 µM (inactive)"]
]}

###

MEASURED ON: Streptokinase A (Streptococcus pyogenes serotype M1)
Sequence (P10520 whole entry): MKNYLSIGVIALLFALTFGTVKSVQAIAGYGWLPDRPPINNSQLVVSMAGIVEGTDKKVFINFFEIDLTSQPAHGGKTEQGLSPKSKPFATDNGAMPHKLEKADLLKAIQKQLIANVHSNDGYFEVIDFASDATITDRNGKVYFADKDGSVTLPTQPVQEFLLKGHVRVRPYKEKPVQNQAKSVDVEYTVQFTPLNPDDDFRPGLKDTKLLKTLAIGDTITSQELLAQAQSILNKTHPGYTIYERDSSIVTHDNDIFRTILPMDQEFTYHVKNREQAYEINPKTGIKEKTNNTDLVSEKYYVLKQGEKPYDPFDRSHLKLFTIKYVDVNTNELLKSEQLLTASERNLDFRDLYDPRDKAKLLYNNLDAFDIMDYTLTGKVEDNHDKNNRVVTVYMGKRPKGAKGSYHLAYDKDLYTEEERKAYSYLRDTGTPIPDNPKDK
ASSAY: viability-normalized secreted streptokinase activity reduction – plasminogen activation absorbance, OD405, dose response (AID 1914);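 note: secreted streptokinase activity via plasminogen activation per viability signal from cell pellet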
Type: functional, Streptococcus pyogenes M1 GAS
The source made the active and inactive calls.

{"columns": ["COMPOUND", "EC50"],
 "data": [
  ["Cc1cc(C)nc(N/N=C/c2cc(Br)ccc2O)n1", "> 150 µM (not active)"],
  ["COc1ccc(C(=O)N2CCCC(Nc3ccc(C)c(C)c3)C2)cc1F (stereo unspecified)", "> 150 µM (not active)"],
  ["Sc1nnc(-c2cc3c(s2)-c2ccccc2CC3)o1", "> 150 µM (not active)"],
  ["Cc1ccc(Sc2cc(C)nc(-c3ccccn3)n2)cc1", "> 150 µM (not active)"],
  ["O=C(NC1=NCCS1)c1cc(-c2ccccc2)nn1-c1ccccc1", "34.2 µM (active)"],
  ["CCCOc1ccc(-c2nc(OC)c3ccccc3n2)cc1", "6.02 µM (active)"],
  ["Cc1ccc(CSc2nc3sc(C)c(C)c3c(=O)n2Cc2ccco2)cc1", "99.5 µM (active)"],
  ["FC(F)(F)c1cc(-c2ccccc2)nc(N2CCCCCC2)n1", "5.14 µM (active)"],
  ["Cc1cc(/C=C2\\SC(=S)N(C)C2=O)c(C)n1-c1ccccc1O", "17.8 µM (active)"],
  ["Cc1[nH]c2ccccc2c1C(C#N)(C#N)C1C(=O)c2ccccc2C1=O", "> 150 µM (not active)"],
  ["Cc1ccc(/C=C2/Sc3ccc(C(=O)N4CCN(C)CC4)cc3NC2=O)cc1", "> 150 µM (not active)"]
]}
